We begin with Ki values for the protein given by its sequence, as collected from the published literature.
Target chain: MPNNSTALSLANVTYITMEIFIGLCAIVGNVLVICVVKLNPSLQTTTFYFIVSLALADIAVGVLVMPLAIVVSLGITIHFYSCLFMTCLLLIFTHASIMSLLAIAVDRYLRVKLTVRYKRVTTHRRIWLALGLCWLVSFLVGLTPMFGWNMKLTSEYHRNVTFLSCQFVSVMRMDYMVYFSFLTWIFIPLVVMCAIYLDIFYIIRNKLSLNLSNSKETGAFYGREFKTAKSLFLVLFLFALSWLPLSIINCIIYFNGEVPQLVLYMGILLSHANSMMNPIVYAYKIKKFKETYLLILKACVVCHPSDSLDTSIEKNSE

For orientation, consider the following solved cases.
If you can, please state the reported Ki value of O=[N+]([O-])c1cccc2[nH]c(-c3cnc4ccccc4n3)nc12 .
0.879 µM

Fill in: Ki of Fc1ccc(CNc2nc(Oc3ccccc3)nc3nc(-c4ccco4)nn23)cc1 is ___
> 100 µM

Fill blank: measured Ki of the compound CC(C)Cn1cnc2c(N)ncnc21 is ____.
> 100 µM

Which Ki is reported for this compound? Cc1cn2c3c(=O)[nH]c(=O)n(Cc4ccccc4)c3nc2n1C(C)CO (stereo not given)
> 1 µM

Others:
Entry O=C(Cc1ccccc1I)Nc1nc2ccc(Cl)cc2c2nc(-c3ccco3)nn12 has what Ki?
> 10 µM

----------
Target sequence: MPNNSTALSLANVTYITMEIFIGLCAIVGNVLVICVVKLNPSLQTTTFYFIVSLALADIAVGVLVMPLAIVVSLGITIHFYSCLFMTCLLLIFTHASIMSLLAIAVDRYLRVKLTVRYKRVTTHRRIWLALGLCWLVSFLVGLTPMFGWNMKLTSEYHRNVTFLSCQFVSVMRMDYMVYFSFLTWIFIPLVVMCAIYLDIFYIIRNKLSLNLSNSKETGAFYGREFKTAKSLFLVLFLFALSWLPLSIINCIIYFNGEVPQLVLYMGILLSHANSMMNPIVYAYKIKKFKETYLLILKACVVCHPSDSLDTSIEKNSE
What follows is literature data on Ki for the protein given by its sequence.
value-type: Ki (nM)

Recorded Ki for CC(C)(C)c1cc(C(=O)NCCc2ccc(Nc3ncnc4c3ncn4[C@@H]3O[C@H](CO)[C@@H](O)[C@H]3O)cc2)cc(C(C)(C)C)c1O , please?
84

[P] O=c1c2c(nc3ccccn32)n(Cc2ccccc2)c(=O)n1Cc1ccccc1
[Q] O=C([C@H]1S[C@@H](n2cnc3c(NCc4cccc(I)c4)nc(Cl)nc32)[C@H](O)[C@@H]1O)N1CCCC1
Lowest Ki? choose P or Q Answer = label.
P

----------
Across several studies, compounds have been characterized by their Ki on Adenosine receptor A3 (Homo sapiens); a selection follows.

// known answers, use as guide
API: value(readout=Ki, system=Adenosine receptor A3 (Homo sapiens)) for record Cn1c(=O)c2c(nc3n2CCN(c2cccc(F)c2)C3)n(C)c1=O
> 10 µM

Give the reported Ki for Nc1ncnc2c1nc(Br)n2Cc1ccccc1 (system: Adenosine receptor A3 (Homo sapiens)).
≥ 100 µM

Please provide the recorded Ki for CCCN1C(=O)N2C[C@@H](C(C)C)N=C2c2[nH]c(C34CCC(CCC(=O)O)(CC3)CC4)nc21 , tested on Adenosine receptor A3 (Homo sapiens).
> 10 µM

Continuing:
Field: Ki (Adenosine receptor A3 (Homo sapiens)). Entry: Cn1c(=O)c2c(nc3n2CCN(CCc2cccc(Br)c2)C3)n(C)c1=O
> 10 µM

Request body: readout Ki, system Adenosine receptor A3 (Homo sapiens), query Nc1ncnc2c1ncn2Cc1ccccc1 . Return the value.
> 100 µM
